assay: binders of probe aHhip on microarray, primary screen, stem cell growth factor project, biochemical, small-molecule microarray, fluorescence 635/667 (AID 1087); conditions: higher = more signal;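 note: score merges spot fluorescence at 667nm with spot signal to noise ratio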
valueKind: composite z-score

INSERT INTO results (molecule, valuekind, result) VALUES
  ('COCC1C2CC[C@H]3C(OCc4ccc(F)cc4C(F)(F)F)OC[C@]4(C)[C@H]3C2=C(CN4C(=O)OC(C)(C)C)[C@H](C)C1COC (stereo partly drawn)', 'composite z-score', -0.0672),
  ('O=C1C[C@@](C(=O)O)(c2ccc([N+](=O)[O-])cc2)[C@@H](c2ccc(CO)cc2I)N1CC12CC3CC(CC(C3)C1)C2', 'composite z-score', 0.0497),
  ('COCCCNC(=O)[C@]1(Cc2ccccc2N=[N+]=[N-])N=C(c2ccc(OCCCO)cc2)O[C@@H]1c1ccccc1CN=[N+]=[N-]', 'composite z-score', -0.0296),
  ('CC1CC/C=C\[C@H]2OC34C=CCN(CCN5CCOCC5)C(=O)[C@H]3N(CCCCCO)C(=O)[C@@H]4C2C(=O)O1 (stereo partly drawn)', 'composite z-score', -0.216),
  ('CCOC(=O)C1=C[C@@H](C(C)(C)C)N(S(=O)(=O)c2ccc(C)cc2)[C@H]1c1ccc(Cl)c(Cl)c1', 'composite z-score', -0.236),
  ('CC(=O)NCCCC[C@@H]1NC(=O)[C@@H]2C[C@H](C(=O)NCc3ccc(F)cc3)[C@H](c3ccc(O)cc3)N2C1=O', 'composite z-score', -0.0994),
  ('CN(C)CCCC[C@@H]1NC(=O)[C@@H]2C[C@H](C(=O)NCc3ccc(F)cc3)[C@H](c3cccc(OCCO)c3)N2C1=O', 'composite z-score', -0.41),
  ('C[N+](C)(C)CCCC[C@@H]1NC(=O)[C@@H]2C[C@H](C(=O)NCCCCCCNC(=O)CS)[C@H](c3cccc(OCCO)c3)N2C1=O', 'composite z-score', -0.0193),
  ('O=C1O[C@@H](c2ccccc2)[C@@H](c2ccccc2)N2[C@@H](c3ccc(O)cc3)[C@]3(C(=O)Nc4ccccc43)[C@@H](C(=O)N3CCCCCCC3)[C@H]12', 'composite z-score', 1.07),
  ('C=CCOC(=O)[C@@H]1[C@H]2C(=O)O[C@H](c3ccccc3)[C@H](c3ccccc3)N2[C@H](c2ccc(OCCOC(=O)[C@H]3C[C@H]4C(=O)N[C@@H](CCCC[N+](C)(C)C)C(=O)N4[C@H]3c3cccc(OCCO)c3)cc2)[C@@]12C(=O)Nc1ccc(I)cc12', 'composite z-score', 0.154),
  ('Cc1ccc(S[C@]2(C(=O)NCCCN(C)C)CC(=O)N(Cc3ccccc3)[C@@H]2c2ccc(CO)cc2)cc1', 'composite z-score', -0.409),
  ('CC1CC/C=C\[C@H]2OC34C=CCN(c5ccc6ccccc6c5)C(=O)[C@H]3N(CCCCCO)C(=O)[C@@H]4C2C(=O)O1 (stereo partly drawn)', 'composite z-score', -0.306),
  ('C=C[C@H](OC)[C@@H](OC(=O)Nc1ccc(SC)cc1)c1ccc(OCCO)cc1', 'composite z-score', -0.249),
  ('COc1ccc(C#Cc2ccc3c(c2)[C@]2(C(=O)N3)[C@H](C(=O)N3CCc4cc(OC)c(OC)cc4C3)[C@H]3C(=O)O[C@H](c4ccccc4)[C@H](c4ccccc4)N3[C@@H]2c2ccc(OCCO)cc2)cc1', 'composite z-score', 0.314),
  ('C=C[C@H](C)[C@H](OC(=O)Nc1ccc(OC)cc1)c1ccc(O)c2ccccc12', 'composite z-score', -0.124),
  ('O=C1OCC=C[C@H]2OC34C=CCN(Cc5ccccc5)C(=O)[C@H]3N(CCCO)C(=O)[C@@H]4[C@@H]12 (stereo partly drawn)', 'composite z-score', 0.902),
  ('O=C1O[C@@H](c2ccccc2)[C@@H](c2ccccc2)N2[C@@H](c3ccc(O)cc3)[C@]3(C(=O)Nc4ccc(C#CCCO)cc43)[C@@H](C(=O)N3CCCCCCC3)[C@H]12', 'composite z-score', 1.64),
  ('CCOC(=O)C[C@H]1[C@H](OC(=O)c2ccccc2-c2ccccc2)[C@@H](NC(=O)c2ccc(-c3ccccc3)cc2)c2cc(OCCCO)ccc2N1C(=O)c1ccccc1', 'composite z-score', 0.177),
  ('CCCC[C@H]1OB(O)C[C@H]2C1=C(COc1ccccc1)C[C@H]1C(=O)N(Cc3ccccc3)C(=O)[C@H]12', 'composite z-score', 0.0623),
  ('C=CCC(OC(C)=O)[C@@H]1[C@@H](N(Cc2cc3ccccc3o2)C(=O)c2cccc3ccccc23)c2cc(OCCCO)ccc2N1C(=O)Cc1ccc2ccccc2c1 (stereo partly drawn)', 'composite z-score', 0.0749),
  ('COc1ccc([Si](C)(C)[C@@H]2[C@@H](CC(=O)N3Cc4ccccc4C[C@H]3CO)O[C@]3(C(=O)N(Cc4cccc(N5C(=O)COc6ccccc65)c4)c4ccccc43)[C@H]2C)cc1', 'composite z-score', -0.451),
  ('O=C1C2C=CC(C(O)c3ccccn3)N(Nc3ccccc3F)C2C(=O)N1c1ccccc1 (stereo not drawn)', 'composite z-score', -0.0945),
  ('COCCOC(=O)N1C(=O)[C@@]2(c3cc(C#CCC(C(=O)OC)C(=O)OC)ccc31)[C@H](c1ccccc1OCCO)N1[C@H](c3ccccc3)[C@H](c3ccccc3)OC(=O)[C@H]1[C@@H]2C(=O)Nc1nc2ccccc2s1', 'composite z-score', 0.417);
